Test: fission yeast growth modulation, primary screen, strain 972, OD600, 24 h, no modulator (AID 1090);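 further: basal condition with compound alone and no growth modifier present; test concentration not given here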
Conditions: S. pombe 972 growth, called active from +8 up or from −8 down
Active and inactive are the calls of the source.
Respond using exactly one of the listed classes: 1 for active, 0 for inactive

{"molecule": "C=C(C(=O)CC[C@H](OC(C)=O)c1cccc(OCCO)c1)C(C)C", "assigned-class": 0}
{"molecule": "C=CCOC(=O)[C@@H]1[C@H]2C(=O)O[C@H](c3ccccc3)[C@H](c3ccccc3)N2[C@H](c2ccc(OCCOC(=O)[C@H]3C[C@H]4C(=O)N[C@@H](CC(C)C)C(=O)N4[C@H]3c3ccc(O)cc3)cc2)[C@@]12C(=O)Nc1ccc(I)cc12", "assigned-class": 0}
{"molecule": "NC(=O)N1C(=O)C2C(C1=O)C1C=C(c3ccc(CO)cc3)C2C(C2CC2)N1Cc1sc2ccccc2c1Cl (stereo not drawn)", "assigned-class": 0}
{"molecule": "COc1ccc(CCNC(=O)[C@@]2(Sc3ccc(C)cc3)CC(=O)N(Cc3cc(C(F)(F)F)cc(C(F)(F)F)c3)[C@@H]2c2ccc(CO)cc2I)cc1", "assigned-class": 0}
{"molecule": "Cc1ccc(S[C@]2(C(=O)NCc3ccccc3)CC(=O)N(C(C)C)[C@@H]2c2ccc(CO)cc2I)cc1", "assigned-class": 0}
{"molecule": "COc1ccc([Si](C)(C)[C@H]2[C@H](CCn3cc(CCO)nn3)O[C@@]3(C(=O)N(Cc4ccc(N5C(=O)c6cccc7cccc5c67)cc4)c4ccccc43)[C@@H]2C)cc1", "assigned-class": 0}
{"molecule": "O=C1O[C@@H](c2ccccc2)[C@@H](c2ccccc2)N2[C@@H](c3ccccc3OCCO)[C@]3(C(=O)Nc4ccc(C#CC5=CCCCC5)cc43)[C@@H](C(=O)NC[C@H](O)c3ccccc3)[C@H]12", "assigned-class": 0}
{"molecule": "C=CCOC(=O)[C@@H]1[C@H]2C(=O)O[C@H](c3ccccc3)[C@H](c3ccccc3)N2[C@H](c2ccc(OCCOC(=O)[C@H]3C[C@H]4C(=O)N[C@@H](CCCC[N+](C)(C)C)C(=O)N4[C@H]3c3ccc(O)cc3)cc2)[C@@]12C(=O)Nc1ccc(I)cc12", "assigned-class": 0}

Lookup: Write down the call the test reported for this molecule. Item: CN1C(=O)C2C(C1=O)C1C=C(c3ccc(CO)cc3)C2C(c2cccs2)N1Cc1cccc(OC(F)(F)F)c1 (stereo not drawn)
Found: 0

Lookup: Also O=C1NC(=O)C2C1C=CC(C(O)c1ccc3c(c1)OCO3)N2Nc1ccccn1 (stereo not drawn) ?
Found: 0

Lookup: Also COC(=O)C1(Cc2ccccc2)C=C2C(=C(c3ccccc3)C(=O)C2C)CN1 (stereo not drawn) ?
Found: 0

Lookup: Also C=C(CCCC)C(=O)CC[C@@H](OC(=O)c1ccccc1-c1ccccc1C(=O)O)c1cccc(OCCO)c1 ?
Found: 0

Lookup: Also CN(C)CCCNC(=O)[C@@]1(c2ccc([N+](=O)[O-])cc2)CC(=O)N(CC23CC4CC(CC(C4)C2)C3)[C@@H]1c1ccc(CO)cc1 ?
Found: 1

Lookup: Also COc1cc2c(cc1O)C(C)N(Cc1cc3c(cc1Br)OCO3)CC2 (stereo not drawn) ?
Found: 1

Lookup: Also COc1c(C)cc(-c2cc3c(c(Cc4ccccc4)n2)[Si](C(C)C)(C(C)C)OC3)cc1C ?
Found: 0

Lookup: Also CO[C@H]1O[C@H](CO)[C@@H](OC(=O)c2ccc(Br)cc2)[C@@H]2OC(=O)[C@@H](Cc3ccc4ccccc4c3)C/C=C/C[C@H](Cc3ccc4ccccc4c3)C(=O)O[C@@H]12 ?
Found: 0

Lookup: Also COCCCNC(=O)[C@@]1(Sc2ccc(C)cc2)CC(=O)N(C2Cc3ccccc3C2)[C@@H]1c1ccc(CO)cc1I ?
Found: 0

Lookup: Also COC(=O)C[C@H]1O[C@]2(C(=O)N(C)c3ccccc32)[C@@H](C)[C@@H]1[Si](C)(C)c1ccc(C)cc1 ?
Found: 1

Lookup: Also COCCOC(=O)N1C(=O)[C@@]2(c3ccccc31)[C@H](c1ccc(OCCO)cc1)N1[C@H](c3ccccc3)[C@H](c3ccccc3)OC(=O)[C@H]1[C@@H]2C(=O)Nc1nc2ccccc2s1 ?
Found: 0

Lookup: Also C=CCOC(=O)[C@H]1[C@@H]2C(=O)O[C@@H](c3ccccc3)[C@@H](c3ccccc3)N2[C@@H](c2ccc(OCCOC(=O)[C@H]3C[C@H]4C(=O)N[C@@H](Cc5ccccc5)C(=O)N4[C@H]3c3ccc(O)cc3)cc2)[C@]12C(=O)Nc1ccc(I)cc12 ?
Found: 0

Lookup: Also COC(=O)[C@@]1(Cc2ccccc2)[C@H]2c3cc(C(=O)N4CCCC4)n(C[C@H](O)CO)c3C[C@H]2CN1C(=O)c1ccccc1 ?
Found: 0

Lookup: Also C=C[C@@H](COC(C)=O)NS(=O)(=O)c1ccc(Br)cc1 ?
Found: 1

Lookup: Also CN1C2C=C(CCCO)C(C3C(=O)N(C(N)=O)C(=O)C32)C1c1cccs1 (stereo not drawn) ?
Found: 0

Lookup: Also COc1ccc(NN2C(C(O)c3ccco3)C=CC3C(=O)N(C4CCCCC4)C(=O)C32)cc1 (stereo not drawn) ?
Found: 0

Lookup: Also CCCC=C(CCC)[C@@H](NP(=O)(c1ccccc1)c1ccccc1)c1ccc(C(F)(F)F)cc1 ?
Found: 0

Lookup: Also CC=CC(O)C1C=CC2C(=O)N(c3ccccc3)C(=O)C2N1Nc1ccc([N+](=O)[O-])cc1 (stereo not drawn) ?
Found: 0

Lookup: Also COc1ccc(NC(=O)O[C@H]2[C@H](OC(=O)Nc3ccc4c(c3)OCO4)[C@@H](OC(=O)Nc3ccc4c(c3)OCO4)[C@@H](OC)O[C@@H]2CO)cc1 ?
Found: 0

Lookup: Also CC=CC(O)C1C=CC2C(=O)N(c3ccccc3)C(=O)C2N1Nc1ccccc1 (stereo not drawn) ?
Found: 0
